# assayed-system: Ba/F3 ERBB2 A775_G776insYVMA (Homo sapiens, UniProt P04626, DUP772-775, cells depend on it)
# Sequence (P04626 with tags, fused parts or gaps DUP772-775): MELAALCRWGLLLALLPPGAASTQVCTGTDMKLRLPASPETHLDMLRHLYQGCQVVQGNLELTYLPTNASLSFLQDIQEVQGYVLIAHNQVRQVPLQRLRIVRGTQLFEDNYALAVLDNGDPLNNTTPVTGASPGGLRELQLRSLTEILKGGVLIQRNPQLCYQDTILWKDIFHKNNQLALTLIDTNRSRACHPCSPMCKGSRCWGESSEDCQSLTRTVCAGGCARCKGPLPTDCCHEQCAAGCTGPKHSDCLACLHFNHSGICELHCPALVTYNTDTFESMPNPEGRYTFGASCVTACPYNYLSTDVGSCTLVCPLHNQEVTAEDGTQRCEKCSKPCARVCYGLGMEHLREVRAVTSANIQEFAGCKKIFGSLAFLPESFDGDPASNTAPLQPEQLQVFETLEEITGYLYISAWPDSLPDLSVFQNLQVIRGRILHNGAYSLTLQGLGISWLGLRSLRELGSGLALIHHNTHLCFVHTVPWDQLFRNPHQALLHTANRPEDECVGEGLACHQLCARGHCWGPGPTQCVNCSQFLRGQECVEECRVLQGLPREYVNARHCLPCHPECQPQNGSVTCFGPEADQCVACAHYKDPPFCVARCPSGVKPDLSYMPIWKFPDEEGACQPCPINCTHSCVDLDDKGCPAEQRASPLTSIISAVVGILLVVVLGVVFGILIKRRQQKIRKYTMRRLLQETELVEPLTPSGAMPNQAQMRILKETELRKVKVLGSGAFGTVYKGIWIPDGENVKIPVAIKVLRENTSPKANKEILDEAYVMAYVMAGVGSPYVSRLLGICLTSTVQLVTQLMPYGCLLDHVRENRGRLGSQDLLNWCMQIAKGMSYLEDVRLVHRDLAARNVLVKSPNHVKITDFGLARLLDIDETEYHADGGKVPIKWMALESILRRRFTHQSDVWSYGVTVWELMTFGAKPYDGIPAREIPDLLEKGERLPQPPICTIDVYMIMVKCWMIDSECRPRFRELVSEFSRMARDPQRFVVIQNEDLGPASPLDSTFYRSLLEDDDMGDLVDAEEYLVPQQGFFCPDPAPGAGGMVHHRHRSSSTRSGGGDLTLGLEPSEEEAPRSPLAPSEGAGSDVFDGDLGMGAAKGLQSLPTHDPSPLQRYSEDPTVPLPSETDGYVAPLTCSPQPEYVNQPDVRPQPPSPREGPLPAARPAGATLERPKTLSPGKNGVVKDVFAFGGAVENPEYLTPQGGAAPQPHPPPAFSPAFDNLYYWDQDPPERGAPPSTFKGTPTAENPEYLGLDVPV
# procedure-summary: Cell viability assay, Ba/F3 ERBB2 A775_G776insYVMA
# Assay type: cell-based, mouse
# test-conditions: Ba/F3 ERBB2 YVMA cells, cell viability, 72 hours, CellTiter Glo; Table B5; read-out: Ba/F3 ERBB2 YVMA, IC50
# Protocol: Cells were treated with compounds, and cell viability was measured as a metric of kinase inhibition. The Ba/F3 cell line is IL-3-dependent mouse cell line derived from the C3H mouse strain. Ba/F3 cell lines were engineered to express human ERBB2 or EGFR kinases, rendering the cells IL-3 independent. […] Similarly, Ba/F3 cell lines engineered to express EGFR, ERBB2, or ERBB2 mutants were grown, harvested, counted and seeded at 3000 cells per well in 96-well plates. […]
assay-metric: GI50 (nM)
I only need the number, in nM, no unit after it.

CN(C)C/C=C1\CCN(c2cc3c(Nc4ccc(Oc5ccn6ncnc6c5)c(F)c4)ncnc3cn2)C1=O
19.3
Cc1cc(Nc2ncnc3ccc(N4CC/C(=C\CN(C)C)C4=O)nc23)ccc1Oc1ccn2nnnc2c1
11.1

Attention now shifts to the item below.
## Task Look up GI50 for this compound: C=C1C(=O)N(c2ccc3ncnc(Nc4ccc(Oc5ccn6ncnc6c5)c(C)c4)c3c2)CC1COCCN(C)C (single isomer, unassigned) [Example S111, Enantiomer #1]
## Result 18.4
